B1: TPR 5TU (parent)
chain: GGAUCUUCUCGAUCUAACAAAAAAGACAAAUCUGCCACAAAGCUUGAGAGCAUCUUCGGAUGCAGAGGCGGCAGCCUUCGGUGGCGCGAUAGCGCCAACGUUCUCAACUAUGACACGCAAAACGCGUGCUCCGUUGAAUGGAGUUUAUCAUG

- Variants of: B1
- experiment_description: polymerase ribozyme fitness, log enrichment relative to wild type (log ratio); higher = more active; in vitro selection for triplet polymerase activity
Variants at the floor of the assay were thinned out.
Label 1.0 when polymerase ribozyme fitness (log ratio) >= -2; otherwise 0.0.

INSERT INTO measurements (changes, class_name) VALUES
  ('C5A A12U', 1.0),
  ('A40U C87A', 0.0),
  ('A21U C69U C96A C129A U135A G143U', 1.0),
  ('C18G A24G G50U U55A A106C C125A', 0.0),
  ('G11C C36U C57A G100A', 0.0),
  ('C54A C96G', 1.0),
  ('U15C A22G', 1.0),
  ('A47U U55A G141U', 1.0),
  ('U61G C69G U82A C95A A122U U148C', 0.0),
  ('A30G G42A', 0.0),
  ('A138C U139A', 0.0),
  ('A28G A49U U56A A66U U90G A106U C108G A119G', 0.0),
  ('C14A A29C C96G A150U', 0.0),
  ('U13A U33A A52U A89G', 0.0),
  ('U55G C93U U101G', 1.0),
  ('A40C G70A', 0.0),
  ('U56G C93U A110U', 0.0),
  ('A39U A60G A137U', 0.0),
  ('G68A', 0.0),
  ('U55A A106C C125G', 1.0),
  ('G67C G88C C116G A122U G128U U144A', 0.0),
  ('U4C C14U U15A A41C C93A C95U', 0.0);

Reference for the values: the RNAGym collection of RNA variant scans (doi:10.1073/pnas.2313332121)
